Where these numbers come from: ChEMBL document CHEMBL3867469

Experiment summary: in vitro
Condition set: human, hepatocytes
Quantity: hepatocyte CLint at […], 1 µM (µL/min/1e6 cells)
Numeric only. Scale: µL/min/1e6 cells

Req: Give the measured hepatocyte CLint at […], 1 µM of Cc1cccc(Cl)c1Oc1nn(-c2ccc(C(=O)O)cc2)c2ccc(C(=O)N(C)C)cc12 .
Resp: 54

====

Experiment summary: physchem
Condition set: buffer, pH 6.5
Quantity: logD
Form rule: numeric answer, no unit written next to it.

Check out these entries, answers already filled in.
INSERT INTO results (structure_string, measured_result) VALUES
  ('Cc1cccc2c(Oc3c(Cl)cccc3Cl)nn(-c3ccc(C(=O)O)cc3)c12', 2.6),
  ('CN(C)C(=O)c1ccc2c(c1)c(Sc1cccc(Cl)c1Cl)nn2-c1ccc(C(=O)O)cc1', 2.1),
  ('CN(Cc1ccccc1)C(=O)c1ccc2c(c1)c(Sc1c(Cl)cccc1Cl)nn2-c1ccc(C(=O)O)cc1', 2.9);

Kindly consider the entry below.
Req: Give the measured logD of CN(C)C(=O)c1ccc2c(Oc3c(Cl)cccc3Cl)nn(-c3ccc(C(=O)O)cc3)c2c1 .
Resp: 1.8
